The origin of these recorded values is patent US20050256034A1.

- Tested on: CEM cells
- experimental-protocol: CellTiter 96 cell proliferation assay, 48 h exposure
- Type: cell-based
- condition-details: Homo sapiens, CCRF-CEM, 48 h, read-out: Chemosensitivity, 50% of the dose response curve (EC50), CEM + NBMPR (100 nM), 48 h exposure, mean ± SD
# EC50 per record follows
observation-type: EC50

compound: Nc1ccn([C@@H]2O[C@H](CO)[C@@H](O)C2(F)F)c(=O)n1 [Gemcitabine, gemcitabine]
reported-result: 0.07 µM
--
compound: Nc1ccn([C@@H]2CO[C@H](CO)O2)c(=O)n1 [Troxacitabine, troxacitabine]
reported-result: 0.21 µM

----------
- experimental-protocol: 3H-Thymidine Incorporation Assay (24 hr drug, wash, another 48 hr; 72 hr assay)
- Type: cell-based
- condition-details: CCRF-CEM, read-out: IC50 (3H-TdR incorporation at 72 hr) CEM/dCK- 24 h, CEM/dCK- (CCRF-CEM deoxycytidine kinase-deficient); 24 hr exposure to drug, wash, another 48 hr
observation-type: IC50 (µM)

query-smiles: Nc1ccn([C@@H]2CO[C@H](COC(=O)C34CCC[C@@H]5C[C@@H]3C[C@H]5C4)O2)c(=O)n1
op: =
reported-result: 5.8
--
query-smiles: CCOC(OCC)(OC[C@H]1OC[C@@H](n2ccc(N)nc2=O)O1)c1ccccc1
op: >
reported-result: 100
--
query-smiles: O=C(Nc1ccn([C@@H]2CO[C@H](COC(=O)OCc3ccc([N+](=O)[O-])cc3)O2)c(=O)n1)OCc1ccc([N+](=O)[O-])cc1
op: >
reported-result: 100
--
query-smiles: Cc1ccc(C)c(OCCCC(C)(C)C(=O)OC[C@H]2OC[C@@H](n3ccc(N)nc3=O)O2)c1
op: =
reported-result: 18
--
query-smiles: Nc1ccn([C@@H]2CO[C@H](COC(=O)c3ccc([N+](=O)[O-])cc3)O2)c(=O)n1
op: =
reported-result: 19
--
query-smiles: Nc1ccn([C@@H]2CO[C@H](COC(=O)c3ccccc3F)O2)c(=O)n1
op: =
reported-result: 9.8

----------
- experimental-protocol: 3H-Thymidine Incorporation Assay (24 hr drug, wash, another 48 hr; 72 hr assay)
- Assay type: cell-based
- condition-details: MCF7, read-out: IC50 (3H-TdR incorporation at 72 hr) MCF-7 24 h, MCF-7 human breast carcinoma; 24 hr exposure to drug, wash, another 48 hr
observation-type: IC50

query-smiles: Cc1ccc(C)c(OCCCC(C)(C)C(=O)OC[C@H]2OC[C@@H](n3ccc(N)nc3=O)O2)c1
reported-result: ≤ 0.1 nM
//
query-smiles: Nc1ccn([C@@H]2CO[C@H](COC(=O)c3ccc([N+](=O)[O-])cc3)O2)c(=O)n1
reported-result: 8.6 nM
//
query-smiles: Nc1ccn([C@@H]2CO[C@H](COC(=O)c3ccc(C(F)(F)F)cc3)O2)c(=O)n1
reported-result: 3.3 nM

----------
- experimental-protocol: 3H-Thymidine Incorporation Assay (24 hr drug, wash, another 48 hr; 72 hr assay)
- Assay type: cell-based
- condition-details: SF-268, read-out: IC50 in μM (3H-TdR incorporation at 72 hr) SF-268 (72 h), SF-268 human central nervous system tumor; 72 h exposure

compound: CC(C)CCCCC(=O)Nc1ccn([C@@H]2CO[C@H](COC(=O)CCCCC(C)C)O2)c(=O)n1 [Compound 276]
IC50, µM: 0.018

----------
# IC50 per record follows
- experimental-protocol: 3H-Thymidine Incorporation Assay (24 hr drug, wash, another 48 hr; 72 hr assay)
- Assay type: cell-based
- condition-details: NCI-H460, read-out: IC50 in μM (3H-TdR incorporation at 72 hr) H-460 24 h, H-460 human lung carcinoma; 24 h exposure to drug, wash, another 48 hr

molecule: Nc1ccn([C@@H]2CO[C@H](COCOCc3ccccc3)O2)c(=O)n1
IC50 [µM]: 7

molecule: CC(C(=O)OC[C@H]1OC[C@@H](n2ccc(N)nc2=O)O1)c1ccccc1 (some centres unmarked)
IC50 [µM]: 0.045

----------
- experimental-protocol: 3H-Thymidine Incorporation Assay (24 hr drug, wash, another 48 hr; 72 hr assay)
- Format: cell-based
- condition-details: ratio of IC50 CEM/dCK- to IC50 CCRF-CEM, 24 h exposure
observation-type: Factor (Resistance Factor = Ratio of dCK- on Wild-type CCRF-CEM)

compound: CC(C)OC(=O)OCOC[C@H]1OC[C@@H](n2ccc(N)nc2=O)O1.O=C(O)C(F)(F)F.O=C(O)C(F)(F)F
reported-result: 3,333
--
compound: COc1cc2c(cc1OC)C(=O)/C(=C/c1cc(C)c(OC(=O)OC[C@H]3OC[C@@H](n4ccc(N)nc4=O)O3)c(C)c1)C2
reported-result: 10
--
compound: O=C(Nc1ccn([C@@H]2CO[C@H](COC(=O)C34CC5CC(CC(C5)C3)C4)O2)c(=O)n1)OCc1ccccc1
reported-result: 44
--
compound: Nc1ccn([C@@H]2CO[C@H](COC(=O)C34CC5CC(CC(C5)C3)C4)O2)c(=O)n1
reported-result: 3 307
--
compound: O=C(NCc1ccccc1)Nc1ccn([C@@H]2CO[C@H](CO)O2)c(=O)n1
reported-result: >29
--
compound: COc1ccc(OC(=O)Nc2ccn([C@@H]3CO[C@H](COC(=O)Oc4ccc(OC)cc4)O3)c(=O)n2)cc1
reported-result: 2,778
--
compound: O=c1nc(NC2Sc3ccccc3S2)ccn1[C@@H]1CO[C@H](CO)O1
reported-result: >25
--
compound: COC(OC)(OC[C@H]1OC[C@@H](n2ccc(N)nc2=O)O1)c1ccccc1
reported-result: >250
--
compound: O=C(Nc1ccn([C@@H]2CO[C@H](COC(=O)C34CC5CC(CC(C5)C3)C4)O2)c(=O)n1)C12CC3CC(CC(C3)C1)C2
reported-result: 27
--
compound: N=C(OC[C@H]1OC[C@@H](n2ccc(N)nc2=O)O1)C(Cl)(Cl)Cl
reported-result: 4,500
--
compound: CC(C)(C)OC(=O)N(CCCCC(=O)Nc1ccn([C@@H]2CO[C@H](COC(=O)CCCCN(Cc3ccccc3)C(=O)OC(C)(C)C)O2)c(=O)n1)Cc1ccccc1
reported-result: 500
--
compound: CC(C)[C@H](N)C(=O)Nc1ccn([C@@H]2CO[C@H](CO)O2)c(=O)n1.O=C(O)C(F)(F)F
reported-result: >53
--
compound: CCCCC(C)C(=O)OC[C@H]1OC[C@@H](n2ccc(/N=C/N(C)C)nc2=O)O1 (stereo partly drawn)
reported-result: 2,000
--
compound: CC(C)(C)OC(=O)N(CCCCC(C)(C)C(=O)Nc1ccn([C@@H]2CO[C@H](CO)O2)c(=O)n1)Cc1ccccc1
reported-result: 97
--
compound: CCCCC(CC)C(=O)Nc1ccn([C@@H]2CO[C@H](CO)O2)c(=O)n1 (stereo partly drawn)
reported-result: >20
--
compound: COC(=O)CCCC(=O)Nc1ccn([C@@H]2CO[C@H](CO)O2)c(=O)n1
reported-result: 83
--
compound: COc1ccc(C(OC[C@H]2OC[C@@H](n3ccc(N)nc3=O)O2)(c2ccccc2)c2ccc(OC)cc2)cc1
reported-result: 17
--
compound: O=C(Nc1ccn([C@@H]2CO[C@H](COC(=O)Oc3ccc(Cl)cc3)O2)c(=O)n1)Oc1ccc(Cl)cc1
reported-result: 4,545
--
compound: CC(C)(C)OC(=O)N(CCCCC(=O)OC[C@H]1OC[C@@H](n2ccc(N)nc2=O)O1)Cc1ccccc1
reported-result: 13000
--
compound: CC(C)(C)OC(=O)N(CCCCC(=O)Nc1ccn([C@@H]2CO[C@H](CO)O2)c(=O)n1)Cc1ccccc1
reported-result: >500
--
compound: CC(C)c1ccc(NC(=O)OC[C@H]2OC[C@@H](n3ccc(NC(=O)OCc4ccccc4)nc3=O)O2)cc1
reported-result: ˜2
--
compound: COc1ccc(OC(=O)OC[C@H]2OC[C@@H](n3ccc(N)nc3=O)O2)cc1
reported-result: >3 571
--
compound: CN(Cc1ccccc1)C(=O)OC[C@H]1OC[C@@H](n2ccc(N)nc2=O)O1
reported-result: >9
--
compound: O=c1nc(NC2(c3ccccc3)c3ccccc3Oc3ccccc32)ccn1[C@@H]1CO[C@H](COC2(c3ccccc3)c3ccccc3Oc3ccccc32)O1
reported-result: 110
--
compound: O=C(Nc1ccn([C@@H]2CO[C@H](COC(=O)Oc3ccccc3)O2)c(=O)n1)Oc1ccccc1
reported-result: 1,000,000
--
compound: CC(C(=O)OC[C@H]1OC[C@@H](n2ccc(N)nc2=O)O1)C(c1ccccc1)c1ccccc1 (stereo partly drawn)
reported-result: > 8330
--
compound: CCCCCCNC(=O)Nc1ccn([C@@H]2CO[C@H](COC(=O)NCCCCCC)O2)c(=O)n1
reported-result: ˜2
--
compound: Nc1ccn([C@@H]2CO[C@H](COC(=S)Oc3ccccc3)O2)c(=O)n1
reported-result: >4 000
--
compound: Nc1ccn([C@@H]2CO[C@H](COC(=O)CCCCCNCc3ccccc3)O2)c(=O)n1
reported-result: 5,000
--
compound: COC1(OC[C@H]2OC[C@@H](n3ccc(N)nc3=O)O2)CCCCC1
reported-result: >1 667
